assayed.target: recombinant human GALK1 (Homo sapiens)
Sequence (P51570 whole entry): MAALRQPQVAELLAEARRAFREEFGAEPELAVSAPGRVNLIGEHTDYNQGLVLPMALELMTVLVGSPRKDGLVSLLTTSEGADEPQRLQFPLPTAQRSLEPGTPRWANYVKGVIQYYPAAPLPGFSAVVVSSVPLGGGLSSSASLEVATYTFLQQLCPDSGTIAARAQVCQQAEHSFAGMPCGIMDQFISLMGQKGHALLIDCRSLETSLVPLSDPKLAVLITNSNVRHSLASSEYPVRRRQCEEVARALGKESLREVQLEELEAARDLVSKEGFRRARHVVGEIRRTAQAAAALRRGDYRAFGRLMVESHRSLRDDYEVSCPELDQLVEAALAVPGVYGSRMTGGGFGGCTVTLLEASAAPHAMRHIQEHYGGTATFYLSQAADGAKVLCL
assay.info: GALK1 inhibition assay
Assay type: biochemical
condition.context: maximal % inhibition at 57 μM compound
# MR (maximal % inhibition) annotations

# compound Cc1ccc(S(=O)(=O)Nc2cnccc2C(=O)Nc2nc(-c3ccccc3)cs2)cc1 [C2] ; its MR (maximal % inhibition) = 83.5%

# compound COc1ccc(-c2csc(NC(=O)c3ccccc3NS(=O)(=O)c3ccc(C)cc3)n2)cc1 [C5] ; its MR (maximal % inhibition) = 75.9%

# compound Cc1ccc(S(=O)(=O)Nc2cc(Cl)c(Cl)cc2C(=O)Nc2nc(-c3ccccc3)cs2)cc1 [C4] ; its MR (maximal % inhibition) = 89.3%

# compound Cc1ccccc1S(=O)(=O)Nc1cnccc1C(=O)Nc1nc(-c2ccccc2)cs1 [C7] ; its MR (maximal % inhibition) = 90.3%

# compound Cc1ccc(S(=O)(=O)Nc2cc(C(F)(F)F)ccc2C(=O)Nc2nc(-c3ccccc3)cs2)cc1 [C3] ; its MR (maximal % inhibition) = 92.9%

# compound O=C(Nc1nc(-c2ccccc2)cs1)c1ccncc1NS(=O)(=O)c1ccc(-c2ccccc2)cc1 [C9] ; its MR (maximal % inhibition) = 88.5%

# compound O=C(Nc1nc(-c2ccccc2)cs1)c1ccncc1NS(=O)(=O)c1ccc(N2CCCC2=O)cc1 [C10] ; its MR (maximal % inhibition) = 62.5%

# compound Cc1ccc(-c2csc(NC(=O)c3ccccc3NS(=O)(=O)c3ccc(C)cc3)n2)cc1 [C6] ; its MR (maximal % inhibition) = 81.0%

# compound COc1ccc(S(=O)(=O)Nc2cnccc2C(=O)Nc2nc(-c3ccccc3)cs2)cc1 [C8] ; its MR (maximal % inhibition) = 84.5%
